# measured_target: Recombinant human his-tagged IGF 1R extracellular domain protein (human) (UniProt P08069)
# assay_info: SPR, captured antibody, pH 7.4

| binder | measure_unit | kon |
| --- | --- | --- |
| VRDN-03038 (antibody, V domains shown) VH: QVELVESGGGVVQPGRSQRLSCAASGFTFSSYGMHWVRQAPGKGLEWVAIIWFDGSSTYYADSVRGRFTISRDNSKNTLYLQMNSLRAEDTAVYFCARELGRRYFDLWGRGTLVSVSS VL: EIVLTQSPATLSLSPGERATLSCHASQSVSSYLAWYQQKPGQAPRLLIYDASKRATGIPARFSGSGSGTDFTLTISSLEPEDFAVYYCQQRSKWPPWTFGQGTKVESK | M⁻¹ s⁻¹ | 96900 |
| VRDN-03132 (antibody, V domains shown) VH: EVQLVESGGGVVQPGRSLRLSCAASGFTFSSYSMHWVRQAPGKGLEWVAVIWYDGSSKYYADSVKGRFTISRDNSKNTLYLQMNSLRAEDTAVYYCARELGRRYFDIWGQGTLVTVSS VL: EIVMTQSPATLSVSPGERATLSCRASQGVSSNLAWYQQKPGQAPRLLIYGASTRATGIPARFSGSGSGTEFTLTISSLQSEDFAVYYCQQRSRWPPWTFGGGTKLEIK | M⁻¹ s⁻¹ | 395000 |
| VRDN-03107 (antibody, V domains shown) VH: QVQLVESGGGVVQPGRSLRLSCAASGFTFSSYSMHWVRQAPGKGLEWVAIIWFDGSSKYYADSVKGRFTISRDNSKNTLYLQMNSLRAEDTAVYYCARELGRRYFDIWGRGTLVTVSS VL: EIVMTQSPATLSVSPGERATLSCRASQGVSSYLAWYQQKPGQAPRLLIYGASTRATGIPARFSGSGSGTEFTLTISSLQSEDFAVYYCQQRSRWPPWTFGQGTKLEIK | M⁻¹ s⁻¹ | 58000 |
